System: WNV (NY-99 strain) infection of Vero E6 cells
Assay: Time of addition assay in dose response format
Assay type: cell-based, West Nile virus
Settings: West Nile virus, Vero C1008, 18 h, read-out: EC50 in time of addition assay
pEC50: −log10 of the molar value.
Hi there, I'd appreciate the recorded pEC50 for every entry that follows.

Q: I have this compound here, COc1c(C)c2c(c(O)c1C/C=C(\C)CCC(=O)O)C(=O)OC2 [MPA, mycophenolic acid, reference compound] , and I need its recorded pEC50.
Ans: 5.30 to 5.70

Next item in the queue.
Q: What pEC50 value was documented for this compound, COc1cc(-c2ccc(Nc3ccccc3C(=O)O)c(OC)c2)ccc1Nc1ccccc1C(=O)O ?
Ans: 5.19 to 5.49
